target_or_test_system: human 5-HT2A receptor (Homo sapiens, UniProt P28223)
Construct: purchased PerkinElmer; host or cells: CHO-K1 cells, stably transfected
Sequence (P28223 whole entry): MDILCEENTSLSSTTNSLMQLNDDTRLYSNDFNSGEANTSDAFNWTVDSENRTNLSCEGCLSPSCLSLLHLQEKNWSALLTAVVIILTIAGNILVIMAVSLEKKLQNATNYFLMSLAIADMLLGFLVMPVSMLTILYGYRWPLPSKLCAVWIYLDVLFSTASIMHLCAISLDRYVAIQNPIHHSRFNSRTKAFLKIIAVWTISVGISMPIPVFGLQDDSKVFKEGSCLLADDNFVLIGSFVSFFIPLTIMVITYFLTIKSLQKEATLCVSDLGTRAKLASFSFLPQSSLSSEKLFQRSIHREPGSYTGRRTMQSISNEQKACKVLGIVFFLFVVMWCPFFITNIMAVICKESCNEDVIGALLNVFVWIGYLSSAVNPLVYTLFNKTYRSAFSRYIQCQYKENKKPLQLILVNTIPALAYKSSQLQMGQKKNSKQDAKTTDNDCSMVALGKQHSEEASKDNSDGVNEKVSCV
test_description: 5-HT2A receptor radioligand binding assay ([3H]-ketanserin, CHO-K1 membranes)
assay_setup: read-out: Ki [nM] ± SEM
Recorded log10 Ki, one value per entry.
value_kind: log10 Ki (log10 of the value in nM)

>>> quantitative_readout("CC1(c2ccccc2)NC(=O)N(CCN2CCN(C(c3ccccc3)c3ccccc3)CC2)C1=O (centres unmarked) [Compound 2]")
2.65
>>> quantitative_readout("O=C1NC2(CCC(c3ccccc3)CC2)C(=O)N1CCCN1CCN(c2ccc(F)cc2)CC1 (centres unmarked) [Compound 11]")
1.32
>>> quantitative_readout("O=C(c1ccc(F)cc1)N1CCN(CCCN2C(=O)NC3(CCC(c4ccccc4)CC3)C2=O)CC1 (centres unmarked) [Compound 12]")
3.41
>>> quantitative_readout("CC1(c2ccccc2)NC(=O)N(CCCN2CCN(c3cccc(F)c3)CC2)C1=O (centres unmarked) [Compound 4]")
2.53
>>> quantitative_readout("O=C1NC2(CCC(c3ccccc3)CC2)C(=O)N1CCCN1CCN(c2ccccc2F)CC1 (centres unmarked) [Compound 9]")
2.34
>>> quantitative_readout("CC1(c2ccccc2)NC(=O)N(CCCN2CCN(c3ccc(F)cc3)CC2)C1=O (centres unmarked) [Compound 5]")
1.68
>>> quantitative_readout("CC1(c2ccccc2)NC(=O)N(CCCN2CCN(c3ccccc3F)CC2)C1=O (centres unmarked) [Compound 3]")
2.71
>>> quantitative_readout("O=C1NC2(CCC(c3ccccc3)CC2)C(=O)N1CCCN1CCN(c2cccc(F)c2)CC1 (centres unmarked) [Compound 10]")
2.47

----------
System: whole rat blood aggregation induced by 5-HT and collagen
test_description: In vitro whole rat blood aggregation induced by 5-HT and sub-threshold collagen
Assay type: cell-based
assay_setup: 5-HT 30 μM and collagen 0.8 μg/ml, read-out: b (5-HT + collagen) IC50
Procedure: In vitro aggregation assays were performed using freshly drawn whole rat blood with a Multiplate platelet function analyzer (Roche Diagnostic), the five-channel aggregometer based on measurements of electric impedance. Blood was collected from carotid arteries with a hirudin blood tube (Roche Diagnostic). […] The aggregation process was recorded for 6 min. […] The Multiplate software analyzed the area under the curve (AUC) of the clotting process of each measurement and calculated the mean values. […]
pIC50: −log10 of the molar value.
Note to self: values exactly at 4 are yes. So pIC50 at or above 4 is yes, below is no.

>>> label("CC1(c2ccccc2)NC(=O)N(CCCN2CCN(c3ccccc3F)CC2)C1=O (stereo not drawn)")
"yes"
>>> label("CC1(c2ccccc2)NC(=O)N(CCCN2CCN(c3cccc(F)c3)CC2)C1=O (stereo not drawn)")
"no"
>>> label("CC1(c2ccccc2)NC(=O)N(CCN2CCN(C(c3ccccc3)c3ccccc3)CC2)C1=O (stereo not drawn)")
"no"
>>> label("O=C1NC2(CCC(c3ccccc3)CC2)C(=O)N1CCCN1CCN(c2cccc(Cl)c2)CC1 (stereo not drawn)")
"yes"

----------
target_or_test_system: 5-HT2A receptors in rat aorta (Rattus norvegicus, UniProt P14842)
Construct: Isolated rat aorta was used to determine the antagonistic activity of studied compounds for 5HT2A-receptors; from tissue; host or cells: aortic rings of male Wistar rats, denuded of the endothelium
Sequence (P14842 whole entry): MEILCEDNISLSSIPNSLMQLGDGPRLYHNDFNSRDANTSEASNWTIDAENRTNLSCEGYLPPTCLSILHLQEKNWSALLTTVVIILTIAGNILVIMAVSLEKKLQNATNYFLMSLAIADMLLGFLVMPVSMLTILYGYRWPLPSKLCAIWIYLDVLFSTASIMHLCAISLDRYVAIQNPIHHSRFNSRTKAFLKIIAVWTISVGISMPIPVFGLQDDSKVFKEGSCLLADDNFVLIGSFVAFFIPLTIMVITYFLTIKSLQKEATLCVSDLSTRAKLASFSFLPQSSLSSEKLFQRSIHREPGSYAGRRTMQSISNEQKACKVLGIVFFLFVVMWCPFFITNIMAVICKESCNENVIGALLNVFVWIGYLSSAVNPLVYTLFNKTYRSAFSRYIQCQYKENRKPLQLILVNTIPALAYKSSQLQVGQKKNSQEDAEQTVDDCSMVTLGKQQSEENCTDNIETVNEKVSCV
test_description: Functional bioassay at 5-HT2A receptors in isolated rat aorta (5-HT-induced contraction)
Format: cell-based
assay_setup: single antagonist concentration, 30 min incubation, read-out: pKB ± SEM a (converted)
Note to self: values exactly at 400 nM are fulfilled. So Kb at or above 400 nM is fulfilled, below is not fulfilled.

>>> label("CC1(c2ccccc2)NC(=O)N(CCCN2CCN(c3ccc(F)cc3)CC2)C1=O (stereo not shown)")
"not fulfilled"
>>> label("O=C1NC2(CCC(c3ccccc3)CC2)C(=O)N1CCCN1CCN(c2cccc(F)c2)CC1 (stereo not shown)")
"fulfilled"
>>> label("CC1(c2ccccc2)NC(=O)N(CCCN2CCN(c3ccccc3F)CC2)C1=O (stereo not shown)")
"not fulfilled"
>>> label("CC1(c2ccccc2)NC(=O)N(CCCN2CCN(c3cccc(F)c3)CC2)C1=O (stereo not shown)")
"fulfilled"
>>> label("O=C1NC2(CCC(c3ccccc3)CC2)C(=O)N1CCCN1CCN(c2ccccc2F)CC1 (stereo not shown)")
"not fulfilled"
>>> label("O=C1NC2(CCC(c3ccccc3)CC2)C(=O)N1CCCN1CCN(c2ccc(F)cc2)CC1 (stereo not shown)")
"not fulfilled"
>>> label("CC1(c2ccccc2)NC(=O)N(CCN2CCN(C(c3ccccc3)c3ccccc3)CC2)C1=O (stereo not shown)")
"fulfilled"
